// data source = patent US10551389B2

Measured % Inhibition (50 μM) Mcl-1 accompanies every entry in the list below.
Molecular target: Mcl-1 (Homo sapiens, UniProt Q07820)
Sequence (Q07820 whole entry, species assumed): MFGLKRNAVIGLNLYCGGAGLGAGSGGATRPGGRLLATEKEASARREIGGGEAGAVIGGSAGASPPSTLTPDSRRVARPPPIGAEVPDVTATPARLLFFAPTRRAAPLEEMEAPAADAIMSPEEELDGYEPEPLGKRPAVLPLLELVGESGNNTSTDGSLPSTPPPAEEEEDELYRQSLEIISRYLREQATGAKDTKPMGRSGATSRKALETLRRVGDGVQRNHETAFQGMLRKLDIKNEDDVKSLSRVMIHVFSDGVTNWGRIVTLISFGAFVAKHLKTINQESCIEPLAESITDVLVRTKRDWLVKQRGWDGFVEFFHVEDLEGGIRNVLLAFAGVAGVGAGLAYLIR
Assay: Inhibition of Mcl-1 (disruption of Mcl-1/Bim interaction)
Format: binding
Conditions: compound at 50 μM
MEASUREMENT_NAME: % Inhibition (50 μM) Mcl-1 (%)

input_smiles=Cn1cc(C(=O)c2cccs2)c2cc(C(=O)NS(=O)(=O)c3ccc(CN(CCSc4ccccc4)Cc4ccc5c(c4)OCO5)cc3)ccc21 measurement_name="% Inhibition (50 μM) Mcl-1" censor_symbol== value_measured=40.2
input_smiles=O=C(NS(=O)(=O)c1ccc(CN(CCSc2ccccc2)Cc2ccc3c(c2)OCO3)cc1)c1cccc(NCCc2ccccc2)c1 measurement_name="% Inhibition (50 μM) Mcl-1" censor_symbol== value_measured=36.5
input_smiles=Cn1cc(C(=O)C2CCCCC2)c2cc(C(=O)NS(=O)(=O)c3ccc(CN(CCSc4ccccc4)Cc4ccc(S(N)(=O)=O)cc4)cc3)ccc21 measurement_name="% Inhibition (50 μM) Mcl-1" censor_symbol== value_measured=35.2
input_smiles=O=C(Cn1c2ccccc2c2ccccc21)NS(=O)(=O)c1ccc(CN(CCSc2ccccc2)Cc2c(F)cccc2Cl)cc1 measurement_name="% Inhibition (50 μM) Mcl-1" censor_symbol== value_measured=53.6
input_smiles=Cn1cc(C(=O)C2CCCCC2)c2cc(C(=O)NS(=O)(=O)c3ccc(CN(CCSc4ccccc4)Cc4ccc5c(c4)OCO5)cc3)ccc21 measurement_name="% Inhibition (50 μM) Mcl-1" censor_symbol=< value_measured=2.0
input_smiles=O=C(NS(=O)(=O)c1ccc(CN(CCSc2ccccc2)Cc2c(F)cccc2Cl)cc1)c1ccc(OC(F)(F)F)cc1 measurement_name="% Inhibition (50 μM) Mcl-1" censor_symbol== value_measured=96.5
input_smiles=COc1ccccc1-c1ccc(C(=O)NS(=O)(=O)c2ccc(NCCSc3ccccc3)c([N+](=O)[O-])c2)cc1 measurement_name="% Inhibition (50 μM) Mcl-1" censor_symbol== value_measured=80.6

###

Target: Bcl-XL (Homo sapiens, UniProt Q07817)
Sequence (Q07817 whole entry, species assumed): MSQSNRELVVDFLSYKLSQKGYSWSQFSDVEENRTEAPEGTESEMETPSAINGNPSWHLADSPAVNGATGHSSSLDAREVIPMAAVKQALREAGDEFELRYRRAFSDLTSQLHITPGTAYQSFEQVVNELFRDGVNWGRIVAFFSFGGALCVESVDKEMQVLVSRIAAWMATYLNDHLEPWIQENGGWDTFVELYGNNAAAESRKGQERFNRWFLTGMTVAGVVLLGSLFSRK
Experiment: Inhibition of Bcl-XL (disruption of Bcl-XL/Bim interaction)
Format: binding
Conditions: compound at 50 μM
Listing of entries alongside the reported inhibition at 50 µM.
MEASUREMENT_NAME: inhibition at 50 µM (%)

input_smiles=CC1(C)CCN(c2ccc(C(=O)NS(=O)(=O)c3ccc4ccc(S(=O)(=O)NCCSc5ccccc5)cc4c3)cc2)CC1 censor_symbol== value_measured=73
input_smiles=O=C(NS(=O)(=O)c1ccc(NCCSc2ccccc2)c([N+](=O)[O-])c1)c1ccc2c(ccn2Cc2ccc(C(F)(F)F)cc2C(F)(F)F)c1 censor_symbol== value_measured=42.6
input_smiles=[N-]=[N+]=NS(=O)(=O)c1ccc(CN(CCSc2ccccc2)Cc2ccc(S(=O)(=O)NC(=O)CCCN3C(=O)C(c4ccc(F)cc4F)=C(c4ccc(F)cc4F)C3=O)cc2)cc1 censor_symbol=< value_measured=2
input_smiles=[N-]=[N+]=NS(=O)(=O)c1ccc(CN(CCSc2ccccc2)Cc2ccc(S(=O)(=O)NC(=O)c3ccccc3)cc2)cc1 censor_symbol== value_measured=79.5
input_smiles=COc1cccc(CN(CCSc2ccccc2)Cc2ccc(S(=O)(=O)NC(=O)c3sc(-c4ccccc4)nc3C)cc2)c1 censor_symbol== value_measured=39.6
input_smiles=COc1cc(OC)cc(C(=O)NS(=O)(=O)c2ccc(CN(CCSc3ccccc3)Cc3ccc(S(=O)(=O)N=[N+]=[N-])cc3)cc2)c1 censor_symbol== value_measured=60.3
input_smiles=COc1cccc(CN(CCSc2ccccc2)Cc2ccc(S(=O)(=O)NC(=O)c3cccc4ccccc34)cc2)c1 censor_symbol== value_measured=66.5
input_smiles=[N-]=[N+]=NS(=O)(=O)c1ccc(CN(CCSc2ccccc2)Cc2ccc(S(=O)(=O)NC(=O)c3cccc4ccccc34)cc2)cc1 censor_symbol== value_measured=44.5
input_smiles=NS(=O)(=O)c1ccc(CN(CCSc2ccccc2)Cc2ccc(S(=O)(=O)NC(=O)CCCN3C(=O)C(c4ccc(F)cc4F)=C(c4ccc(F)cc4F)C3=O)cc2)cc1 censor_symbol=< value_measured=2
input_smiles=Cc1nc(-c2ccccc2)sc1C(=O)NS(=O)(=O)c1ccc(CN(CCSc2ccccc2)Cc2ccc(S(=O)(=O)N=[N+]=[N-])cc2)cc1 censor_symbol== value_measured=21.6
input_smiles=COc1ccc(Cc2ccc(C(=O)NS(=O)(=O)c3ccc(CN(CCSc4ccccc4)Cc4ccc5c(c4)OCO5)cc3)cc2)c(OC)c1OC censor_symbol== value_measured=15.5
input_smiles=Cc1nc(-c2ccccc2)sc1C(=O)NS(=O)(=O)c1ccc(CN(CCSc2ccccc2)Cc2c(F)cccc2Cl)cc1 censor_symbol== value_measured=43
input_smiles=Cc1nc(-c2ccccc2)sc1C(=O)NS(=O)(=O)c1ccc(CN(CCSc2ccccc2)Cc2ccc3c(c2)OCO3)cc1 censor_symbol== value_measured=51.3
input_smiles=O=C(NS(=O)(=O)c1ccc(CN(CCSc2ccccc2)Cc2c(F)cccc2Cl)cc1)c1ccccc1 censor_symbol== value_measured=53.4
input_smiles=CC1(C)CCN(c2ccc(C(=O)NS(=O)(=O)c3ccc(CN(CCSc4ccccc4)Cc4ccc(S(N)(=O)=O)cc4)cc3)cc2)CC1 censor_symbol== value_measured=52.1
input_smiles=[N-]=[N+]=NS(=O)(=O)c1ccc(CN(CCSc2ccccc2)Cc2ccc(S(=O)(=O)NC(=O)c3ccc(-c4ccccn4)cc3)cc2)cc1 censor_symbol=< value_measured=2
input_smiles=O=C(NS(=O)(=O)c1ccc(-c2ccc(C(F)(F)F)cc2)cc1)c1cccc(NCCc2ccccc2)c1 censor_symbol== value_measured=55.5
input_smiles=O=C(NS(=O)(=O)c1ccc(CNc2cccc([N+](=O)[O-])c2)cc1)c1ccc(CN2C(=O)C(c3ccc(F)cc3F)=C(c3ccc(F)cc3F)C2=O)cc1 censor_symbol== value_measured=22.6
input_smiles=O=C(NS(=O)(=O)c1ccc(CN(CCSc2ccccc2)Cc2c(F)cccc2Cl)cc1)c1ccc(-c2ccccn2)cc1 censor_symbol== value_measured=57.8
input_smiles=O=C(NS(=O)(=O)c1ccc(CN(CCSc2ccccc2)Cc2ccc3c(c2)OCO3)cc1)c1ccc(CCc2ccccn2)cc1 censor_symbol== value_measured=77.7
